Molecular target: T1, recombinant human MASP1 active protease (amino acids 297-699, C-terminal His Tag) (human, UniProt P48740 297-699)
T1 sequence: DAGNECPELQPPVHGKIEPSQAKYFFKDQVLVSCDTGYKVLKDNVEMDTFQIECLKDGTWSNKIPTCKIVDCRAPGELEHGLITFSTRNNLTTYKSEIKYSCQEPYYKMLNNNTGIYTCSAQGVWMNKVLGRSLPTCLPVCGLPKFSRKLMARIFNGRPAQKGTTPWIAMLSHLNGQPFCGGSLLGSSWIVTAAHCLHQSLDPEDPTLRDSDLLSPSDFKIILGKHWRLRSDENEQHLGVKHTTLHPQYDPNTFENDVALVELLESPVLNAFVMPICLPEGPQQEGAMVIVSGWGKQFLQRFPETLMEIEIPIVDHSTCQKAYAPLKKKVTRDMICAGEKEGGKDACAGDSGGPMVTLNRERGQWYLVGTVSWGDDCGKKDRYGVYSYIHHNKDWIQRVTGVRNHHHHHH
Assay: cell-based or functional assay
Bridge positions count the residues as written; N and C are the ends. Square brackets hold non-standard residues; d marks the D form. Ends that are not written are not given here. Oic = O=C(O)[C@@H]1C[C@@H]2CCCC[C@@H]2N1; Pen = CC(C)(S)[C@H](N)C(=O)O; Ahx = NCCCCCC(=O)O
So I've got a bunch of binders here, and I need their human MASP1 IC50 values.
Record the value in nM, omitting the unit from your answer.

Give the measured human MASP1 IC50 of ICSRSLP[Oic]I[Pen]I-NH2 (disulfide 2-10; N-terminus assumed; SMILES CC[C@H](C)[C@H](N)C(=O)N[C@H]1CSSC(C)(C)[C@@H](C(=O)N[C@H](C(N)=O)[C@@H](C)CC)NC(=O)[C@H]([C@@H](C)CC)NC(=O)[C@@H]2C[C@@H]3CCCC[C@@H]3N2C(=O)[C@@H]2CCCN2C(=O)[C@H](CC(C)C)NC(=O)[C@H](CO)NC(=O)[C@H](CCCNC(=N)N)NC(=O)[C@H](CO)NC1=O) [Example 341: IC+SRSLP-(Oic)-I-(Pen)+I-NH2] .
26

Give the measured human MASP1 IC50 of [Ahx]ICSRSLP[Oic]ICI-OH (disulfide 3-11; N-terminus assumed; SMILES CC[C@H](C)[C@H](NC(=O)[C@@H]1CSSC[C@H](NC(=O)[C@@H](NC(=O)CCCCCN)[C@@H](C)CC)C(=O)N[C@@H](CO)C(=O)N[C@@H](CCCNC(=N)N)C(=O)N[C@@H](CO)C(=O)N[C@@H](CC(C)C)C(=O)N2CCC[C@H]2C(=O)N2[C@@H](C[C@@H]3CCCC[C@@H]32)C(=O)N[C@@H]([C@@H](C)CC)C(=O)N1)C(=O)O) [Example 383: (Ahx)-IC+SRSLP-(Oic)-IC+I-OH] .
40
